- Tested on: HT-29 (human colon adenocarcinoma)
- Assay Comment: MTS cytotoxicity / antiproliferative assay
- Format: cell-based
- Details: Homo sapiens, HT-29, 72 h, read-out: HT-29 72 h(IC50)

>  <Smiles Repr>
COc1cc(C=O)cc(OC)c1O

>  <IC50 / µM>
68.6

$$$$

###

- Assay Comment: DPPH radical scavenging (antioxidant) assay
- Assay type: biochemical
- Details: Table 10; mean ± standard deviation; 30 min, 515 nm; read-out: IC50 (μM), DPPH radical scavenging
Hi! Just check whether IC50 is below 100 µM. Below gives class 1, equal or above gives class 0.

>  <Molecule>
O=C1O[C@H]([C@@H](O)CO)C(O)=C1O [Ascorbic acid, reference compound]

>  <Label Class>
class 1

$$$$
>  <Molecule>
COc1cc2ccc(=O)oc2cc1O

>  <Label Class>
class 0

$$$$
>  <Molecule>
COc1cc(C=O)ccc1O

>  <Label Class>
class 0

$$$$
>  <Molecule>
COc1cc(/C=C/CO)cc(OC)c1O

>  <Label Class>
class 0

$$$$
